- Protocol: CEETOX_H295R_MTT_cell_viability: Viability Assessment in the CeeTox HT-H295R MTT Assay (AID 2283718)
Active and inactive are the calls of the source. Rule for the calls: active = hit-call score of the fitted dose curve at least 0.9, where 1 is the maximum; inactive = score below 0.9.
Lab note: assign the record to one of active, inactive

>>> assigned_class("C/C=C/C(=O)C1=C(C)CCCC1(C)C")
"inactive"

Would you mind telling me which call this test gave `C[C@]12CC[C@@H]3c4ccc(O)cc4CC[C@H]3[C@@H]1C[C@@H](O)[C@@H]2O` ? active

Follow-up item: `Cc1cccc2c1ccc1ccccc12` inactive

Follow-up item: `O=C(CCCN1CCC(O)(c2ccc(Cl)cc2)CC1)c1ccc(F)cc1` inactive

Follow-up item: `c1cc[nH]c1` inactive

Follow-up item: `O=C(NCc1ncc(C(F)(F)F)cc1Cl)c1c(Cl)cccc1Cl` inactive

====

- Protocol: ATG_RORE_CIS: Attagene CIS-FACTORIAL HepG2 Assay for human RAR-related Orphan Receptor Element (RORE) (AID 2282959)
- Assay context: HepG2 Attagene cis-factorial RORE reporter, mRNA; actives raise or lower the signal
The source made the active and inactive calls. Rule for the calls: active = hit-call score of the fitted dose curve at least 0.9, where 1 is the maximum; inactive = score below 0.9.
Outcome measure: AC50

>>> test_result("Nc1cc(Cl)c(-c2cc(Cl)c(N)cc2Cl)cc1Cl")
"inactive"
>>> test_result("Cc1[nH]nc2c1N=C(c1ccccc1Cl)c1cc([N+](=O)[O-])ccc1N2")
"inactive"
>>> test_result("C=CC(=O)OCCC(F)(F)C(F)(F)C(F)(F)C(F)(F)C(F)(F)C(F)(F)C(F)(F)C(F)(F)F")
"inactive"
>>> test_result("Clc1ccc(Nc2nnc(Cc3ccncc3)c3ccccc23)cc1")
"15.8 µM (active)"
>>> test_result("Cc1ccc(C(=O)c2ccccc2)cc1")
"inactive"
>>> test_result("CCc1cccc(CC)c1NC(=O)C(=O)O")
"inactive"

State the recorded AC50 for this entry: `Oc1c(Cl)cc(Cl)cc1Sc1cc(Cl)cc(Cl)c1O` 2.56 µM (active)

Follow-up item: CC1CCC(C(=O)O)CC1 (stereo unspecified) inactive

Follow-up item: FC(F)(F)C1(F)C(F)(F)C(F)(F)C(F)(F)C(F)(C(F)(F)F)C1(F)F (stereo unspecified) inactive

Follow-up item: `O=C(Nc1ccc(Cl)c(Cl)c1)c1cc(Cl)cc(Cl)c1O` 0.903 µM (active)

Follow-up item: COCC1CCC(CO)CC1 (stereo unspecified) inactive

Follow-up item: `CCCCN(C)C` inactive

Follow-up item: `CCCCC=O` inactive

Follow-up item: `COc1cc(OC)nc(NC(=O)NS(=O)(=O)Nc2ccccc2C(=O)N(C)C)n1` inactive

Follow-up item: `O=P(O)(O)CCC(F)(F)C(F)(F)C(F)(F)C(F)(F)C(F)(F)C(F)(F)F` inactive

Follow-up item: `CCCCCCCCCCCC(=O)NCCCN(C)C` 21.3 µM (active)

Follow-up item: `Cc1ccc2ccc3ccc(C)cc3c2c1` inactive

====

- Read-out: Tumor necrosis factor (Homo sapiens) (UniProt P01375)
- Sequence (P01375 whole entry, looked up): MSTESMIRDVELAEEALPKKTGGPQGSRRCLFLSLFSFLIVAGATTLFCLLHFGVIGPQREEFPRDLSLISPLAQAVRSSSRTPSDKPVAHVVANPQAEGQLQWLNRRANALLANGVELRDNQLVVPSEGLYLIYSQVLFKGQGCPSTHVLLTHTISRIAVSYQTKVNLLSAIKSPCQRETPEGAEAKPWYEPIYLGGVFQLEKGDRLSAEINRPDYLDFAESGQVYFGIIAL
- Protocol: BSK_LPS_TNFa: BioMAP Diversity Plus: LPS Assay for Tumour Necrosis Factor alpha (TNFa) Biomarker Activity (AID 2283085)
- Assay context: primary human HUVEC with PBMC; actives raise or lower the signal
Calls of active or inactive are those of the source. The calls were made as follows: active = hit-call score of the fitted dose curve at least 0.9, where 1 is the maximum; inactive = score below 0.9.
Lab note: assign the record to one of active, inactive

>>> assigned_class("CCCCC(CC)C(=O)OCCOCCOCCOCCOC(=O)C(CC)CCCC (stereo unspecified)")
"inactive"
>>> assigned_class("O=C(c1ccccc1)c1ccccc1")
"inactive"
>>> assigned_class("O=C1c2ccc(O)c(O)c2C(=O)c2c(O)ccc(O)c21")
"inactive"
>>> assigned_class("O=C(NO)c1ccccc1")
"inactive"
>>> assigned_class("O=P(O)(O)CCC(F)(F)C(F)(F)C(F)(F)C(F)(F)C(F)(F)C(F)(F)F")
"inactive"
>>> assigned_class("C=CC(=O)OCCC(F)(F)C(F)(F)C(F)(F)C(F)(F)C(F)(F)C(F)(F)C(F)(F)C(F)(F)F")
"inactive"
>>> assigned_class("N=C(N)c1ccc(OCCCCCOc2ccc(C(=N)N)cc2)cc1")
"inactive"
>>> assigned_class("CN(Cc1cnc2nc(N)nc(N)c2n1)c1ccc(C(=O)N[C@@H](CCC(=O)O)C(=O)O)cc1")
"inactive"

Would you mind telling me which call this test gave `CCOC(=O)CN[C@@H](C(=O)N1CC[C@H]1C(=O)NCc1ccc(/C(N)=N/O)cc1)C1CCCCC1` ? inactive

Follow-up item: `CN(C)CCOC(c1ccccc1)c1ccccc1` inactive

Follow-up item: `CC(C)(C)c1ccc(O)c(O)c1` active

Follow-up item: `Oc1cc2ccccc2cc1O` inactive

Follow-up item: `O=C(O)CCC(F)(F)C(F)(F)C(F)(F)C(F)(F)C(F)(F)C(F)(F)F` inactive
